Biological target: VEGFR2 (Homo sapiens)
Construct: host or cells: HEK293 (VEGFR2/NFAT Reporter recombinant cell line)
Sequence (P35968 20-1356): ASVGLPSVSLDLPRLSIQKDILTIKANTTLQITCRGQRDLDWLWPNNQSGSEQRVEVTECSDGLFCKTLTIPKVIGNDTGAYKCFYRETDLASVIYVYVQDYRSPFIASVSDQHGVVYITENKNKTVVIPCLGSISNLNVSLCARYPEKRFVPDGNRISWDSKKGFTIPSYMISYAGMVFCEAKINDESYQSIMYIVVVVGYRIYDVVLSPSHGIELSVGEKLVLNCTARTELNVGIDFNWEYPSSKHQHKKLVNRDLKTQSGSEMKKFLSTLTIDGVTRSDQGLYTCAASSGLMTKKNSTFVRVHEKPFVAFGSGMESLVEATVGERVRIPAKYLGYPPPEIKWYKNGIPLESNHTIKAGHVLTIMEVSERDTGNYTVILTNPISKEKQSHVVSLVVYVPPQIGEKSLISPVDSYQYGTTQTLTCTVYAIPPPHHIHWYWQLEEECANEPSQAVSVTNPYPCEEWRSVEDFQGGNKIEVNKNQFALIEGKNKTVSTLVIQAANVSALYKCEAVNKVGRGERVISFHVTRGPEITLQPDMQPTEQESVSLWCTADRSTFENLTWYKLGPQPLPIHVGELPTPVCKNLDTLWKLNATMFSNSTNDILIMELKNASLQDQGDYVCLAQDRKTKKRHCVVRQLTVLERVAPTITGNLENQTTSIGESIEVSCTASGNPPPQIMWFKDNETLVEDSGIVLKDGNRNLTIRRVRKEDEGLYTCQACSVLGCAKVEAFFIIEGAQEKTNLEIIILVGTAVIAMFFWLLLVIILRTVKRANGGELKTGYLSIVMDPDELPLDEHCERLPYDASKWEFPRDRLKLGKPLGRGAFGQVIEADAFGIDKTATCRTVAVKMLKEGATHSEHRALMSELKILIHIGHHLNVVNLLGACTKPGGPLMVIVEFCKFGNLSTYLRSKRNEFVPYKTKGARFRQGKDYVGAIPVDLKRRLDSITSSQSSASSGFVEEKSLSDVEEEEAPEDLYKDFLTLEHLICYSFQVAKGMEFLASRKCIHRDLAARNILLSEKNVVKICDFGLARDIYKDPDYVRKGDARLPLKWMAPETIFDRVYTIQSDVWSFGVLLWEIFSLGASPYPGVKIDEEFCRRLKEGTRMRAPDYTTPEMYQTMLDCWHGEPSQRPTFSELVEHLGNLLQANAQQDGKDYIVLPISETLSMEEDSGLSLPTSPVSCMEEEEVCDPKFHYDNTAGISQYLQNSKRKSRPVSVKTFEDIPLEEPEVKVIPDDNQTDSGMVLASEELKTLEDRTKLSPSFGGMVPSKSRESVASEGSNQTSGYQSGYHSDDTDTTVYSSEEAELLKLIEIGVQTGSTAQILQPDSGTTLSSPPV
Experiment: VEGFR2/NFAT Reporter HEK293 luciferase assay of VEGF signaling
Type: cell-based
Conditions: ratio of IC50 dark to IC50 light, VEGFR2-HEK cells
Reported property: Dark/Light

[ask] What value of Dark/Light on VEGFR2 (Homo sapiens) does CCN(CC)CCNC(=O)c1c(C)[nH]c(/C=C2\C(=O)Nc3cc(N=[N+]=[N-])c(F)cc32)c1C have?
[reply] 4.57

[ask] For the record Cc1[nH]c(/C=C2\C(=O)Nc3cc(N=[N+]=[N-])ccc32)c(C)c1C(=O)N[C@H]1CCN(C(=O)N(C)C)C1 , what value of Dark/Light is listed for VEGFR2 (Homo sapiens)?
[reply] 5.29

A. CCN(CC)CCNC(=O)c1c(C)[nH]c(/C=C2\C(=O)Nc3cc(Br)c(N=[N+]=[N-])cc32)c1C
B. CCN(CC)CCNC(=O)c1c(C)[nH]c(/C=C2\C(=O)Nc3ccc(N=[N+]=[N-])cc32)c1C
C. Cc1[nH]c(/C=C2\C(=O)Nc3cc(Cl)c(N=[N+]=[N-])cc32)c(C)c1C(=O)N[C@H]1CCN(C(=O)N(C)C)C1
[ask] Ranking field: Dark/Light; order: falling. Please list the labels according to the requested order.
[reply] C, A, B
(C: 62.80, A: 17.25, B: 7.136)
